Each recorded value in this set is attributed to PubChem BioAssay AID1996.

Details: buffer; pH 7.4; 200.0 µM
Categories are assigned from the measured solubility kinetic using these intervals: lower segment = under 4 µg/mL, middle segment = from 4 µg/mL up to 30 µg/mL, upper segment = 30 µg/mL and over

- compound: "CC(C)COP(=O)(c1ccc(N(C)C)cc1)C(O)c1ccccc1 (stereo not drawn)"
  class label: "upper segment"
- compound: "Cc1cccc(C)c1NC(=O)CN(C1CCCCC1)S(C)(=O)=O"
  class label: "upper segment"
- compound: "COc1ccc(CN2CCc3c([nH]c4ccccc34)C2)c(OC)c1C"
  class label: "upper segment"
- compound: "Cc1nc(Cl)c(C(=O)NCCc2ccccc2)c(C)c1[N+](=O)[O-]"
  class label: "lower segment"
- compound: "COc1cccc2c1Oc1cc([N+](=O)[O-])cc(N(C)C(C)=O)c1C=C2"
  class label: "upper segment"
- compound: "CCOC(=O)C1=C(COC(=O)C2CC(=O)N(CCc3ccccc3)C2)NC(=O)NC1C (stereo not drawn)"
  class label: "upper segment"
- compound: "CC(C)(C)C(=O)NC(=O)Nc1ccccc1C(F)(F)F"
  class label: "lower segment"
- compound: "CC1=CC=CC2=NC(=O)CC(C)(C(=O)O)N12 (stereo not drawn)"
  class label: "upper segment"
- compound: "O=C(NC1CCSc2ccccc21)c1cccc(Cl)c1 (stereo not drawn)"
  class label: "lower segment"
- compound: "CCN(CC)c1nc(C)nc2c1sc(=S)n2C"
  class label: "lower segment"
- compound: "O=c1c2cc3c(nc2[nH]c(=S)n1-c1ccccc1)CCCC3"
  class label: "lower segment"
- compound: "COc1ccc2oc(=N)c(C(=O)Nc3ccc(C)cc3)cc2c1"
  class label: "lower segment"
- compound: "COc1ccc(NC(=O)O/N=C/c2ccccc2)cc1"
  class label: "middle segment"
- compound: "COc1ccc(Cl)cc1NC(=O)c1cc(C)no1"
  class label: "middle segment"
- compound: "O=C(O)/C=C/C(=O)Nc1ccc(-n2nccc2C(F)(F)F)cc1"
  class label: "upper segment"
- compound: "Cc1ccccc1-c1nc(C#N)c(N2CCCCC2)o1"
  class label: "lower segment"
- compound: "COc1ccc(/C=C/C(=O)NCCCN2CCCC2)cc1"
  class label: "upper segment"
- compound: "COc1ccc(S(=O)(=O)NCc2cccnc2)cc1"
  class label: "upper segment"
- compound: "COc1ccccc1NC(=O)N1CCCC1C(=O)NCc1cccs1 (stereo not drawn)"
  class label: "upper segment"
- compound: "CC(=O)N1CCN(c2nc3ccc(Br)cc3s2)CC1"
  class label: "middle segment"
- compound: "Cc1ccc2ccc(S(=O)(=O)NCc3ccccn3)cc2c1"
  class label: "middle segment"
- compound: "COC(=O)NC1(C(F)(F)F)C(=O)Nc2c1c(=O)n(C)c(=O)n2C (stereo not drawn)"
  class label: "upper segment"
- compound: "CCOc1ccc(C2CC(=O)NC2=O)cc1 (stereo not drawn)"
  class label: "upper segment"
- compound: "CCc1cccc(NS(=O)(=O)c2c(C)[nH]c(=O)[nH]c2=O)c1"
  class label: "upper segment"
- compound: "COc1ccc(N2CCN(CC(=O)NC(C)c3ccccc3)CC2)cc1 (stereo not drawn)"
  class label: "upper segment"
- compound: "Cc1ccc(C(=O)NC(=S)N2CCN(C)CC2)cc1Br"
  class label: "upper segment"
- compound: "COC(=O)c1ccccc1NC(=O)c1cc[n+]([O-])cc1"
  class label: "upper segment"
- compound: "COc1ccc(NC(=O)c2ccc3[nH]c(C)c(C)c3c2)cc1"
  class label: "lower segment"
- compound: "O=C(CN1N=C(c2ccccc2)CCC1=O)NCc1ccccc1"
  class label: "upper segment"
- compound: "COC(=O)CN1C(=O)N/C(=C/c2cc(OC)c(OC)cc2C)C1=O"
  class label: "upper segment"
- compound: "Cc1cccc(NC(=O)CCC(=O)N2CCOCC2)n1"
  class label: "upper segment"
- compound: "Cc1ccccc1C(=O)/C=C1/SCC(=O)N1C"
  class label: "upper segment"
- compound: "O=C1C(Cc2ccc3[nH]ccc3c2)NC(=S)N1c1ccccc1 (stereo not drawn)"
  class label: "upper segment"
- compound: "CC1(C)OC(=O)C(=NNc2ccccc2C(=O)O)C(=O)O1"
  class label: "upper segment"
- compound: "Br.Fc1ccc(-c2csc(NC3=NCCC3)n2)cc1"
  class label: "upper segment"
- compound: "Clc1cccc(Cl)c1C[n+]1cccc2ccccc21.[Br-]"
  class label: "upper segment"
- compound: "Nc1nc(Nc2cccc(F)c2)nc(N2CCOCC2)c1[N+](=O)[O-]"
  class label: "lower segment"
- compound: "C=CCn1c(C)c(C=C2C(=O)NC(=O)NC2=O)c2ccccc21"
  class label: "upper segment"
- compound: "Cc1ccc(SCCSc2ncccn2)cc1"
  class label: "lower segment"
- compound: "C=CCNc1nc(C(=O)OC(C)C(=O)c2ccc(C)cc2)cs1 (stereo not drawn)"
  class label: "middle segment"
- compound: "CCCC(=O)Nc1ccc2oc(-c3cncc(Br)c3)nc2c1"
  class label: "lower segment"
- compound: "CCCCNC(=O)c1cc2cc(CC)ccc2[nH]1"
  class label: "lower segment"
- compound: "CN(CC(=O)Nc1cccnc1Cl)S(=O)(=O)c1ccc(Cl)cc1"
  class label: "middle segment"
- compound: "Cc1ccc(C(=O)N2CCC(C(=O)NC3CCCC3)CC2)cc1"
  class label: "upper segment"
- compound: "CC1(C)CC2CC(C)(CN2Cc2cccc([N+](=O)[O-])c2)C1 (stereo not drawn)"
  class label: "middle segment"
- compound: "O=C(O)c1ccccc1NC(=O)C1C2C=CC(C2)C1C(=O)O (stereo not drawn)"
  class label: "upper segment"
- compound: "NS(=O)(=O)c1ccc(CCNCC(=O)NC2CC2)cc1"
  class label: "middle segment"
